Molecular target: UniProtKB P05164
Test: MPO chlorination assay (APF)
Assay type: biochemical
Conditions: MPO chlorination assay, ranges given; read-out: MPO chlorination assay IC50
pIC50: −log10 of the molar value.
OBSERVATION_TYPE: pIC50

[
  {
    "COMPOUND": "CN(C)Cc1ccccc1CSc1cc(N)nc2[nH]nnc12 [Example 96]",
    "RESULT": "6.70 to 7.22"
  },
  {
    "COMPOUND": "Nc1cc(SCc2cc(-c3ccccc3)on2)c2nn[nH]c2n1 [Example 101]",
    "RESULT": "6.70 to 7.22"
  },
  {
    "COMPOUND": "Nc1cc(SCc2c(Cl)cccc2Cl)c2nn[nH]c2n1 [Example 11]",
    "RESULT": "≥ 7.22"
  },
  {
    "COMPOUND": "Nc1cc(SCc2cn(-c3cnc(C(=O)N4CCC4)cn3)nc2C(F)F)c2nn[nH]c2n1 [Example 146]",
    "RESULT": "6.00 to 6.70"
  },
  {
    "COMPOUND": "Nc1cc(SCc2cccc(CN3CCCC3)c2)c2nn[nH]c2n1 [Example 15]",
    "RESULT": "≥ 7.22"
  },
  {
    "COMPOUND": "CN(C)c1cc(-n2cc(CSc3cc(N)nc4[nH]nnc34)c(C(F)(F)F)n2)ccn1 [Example 141]",
    "RESULT": "≥ 7.22"
  },
  {
    "COMPOUND": "Nc1nc(SCc2ccccc2)c2nn[nH]c2n1 [Example 155]",
    "RESULT": "6.70 to 7.22"
  },
  {
    "COMPOUND": "COc1cccc(-n2nc(C)c(CSc3cc(N)nc4[nH]nnc34)n2)c1 [Example 69]",
    "RESULT": "6.00 to 6.70"
  },
  {
    "COMPOUND": "Nc1cc(SCc2c(F)cc(Cl)cc2F)c2nn[nH]c2n1 [Example 23]",
    "RESULT": "≥ 7.22"
  },
  {
    "COMPOUND": "CS(=O)(=O)c1cc(Br)cc(F)c1CSc1cc(N)nc2[nH]nnc12 [Example 42]",
    "RESULT": "≥ 7.22"
  },
  {
    "COMPOUND": "N#Cc1cccc(C2CC2)c1CSc1cc(N)nc2[nH]nnc12 [Example 89]",
    "RESULT": "6.70 to 7.22"
  },
  {
    "COMPOUND": "Nc1cc(SCc2ccccc2CS(=O)(=O)c2ccccc2)c2nn[nH]c2n1 [Example 35]",
    "RESULT": "6.70 to 7.22"
  },
  {
    "COMPOUND": "Cc1nn(Cc2ccccc2)c(Cl)c1CSc1nc(N)nc2[nH]nnc12 [Example 159]",
    "RESULT": "6.00 to 6.70"
  },
  {
    "COMPOUND": "CN(C)Cc1ccc(F)c(CSc2cc(N)nc3[nH]nnc23)c1 [Example 99]",
    "RESULT": "6.70 to 7.22"
  },
  {
    "COMPOUND": "Nc1cc(SCc2ccc(S(N)(=O)=O)cc2Cl)c2nn[nH]c2n1 [Example 119]",
    "RESULT": "6.70 to 7.22"
  },
  {
    "COMPOUND": "Cn1nc(-c2ccccc2)c(Cl)c1CSc1cc(N)nc2[nH]nnc12 [Example 112]",
    "RESULT": "≥ 7.22"
  },
  {
    "COMPOUND": "CN(C)CCNC(=O)c1ccccc1-n1cc(CSc2cc(N)nc3[nH]nnc23)c(C(F)F)n1 [Example 151]",
    "RESULT": "≥ 7.22"
  },
  {
    "COMPOUND": "Nc1cc(SCc2cn(-c3ccccn3)nc2C(F)(F)F)c2nn[nH]c2n1 [Example 135]",
    "RESULT": "≥ 7.22"
  },
  {
    "COMPOUND": "CCOC(=O)C(Sc1cc(N)nc2[nH]nnc12)c1ccccc1 (stereo not shown) [Example 106]",
    "RESULT": "6.70 to 7.22"
  }
]

###

Molecular target: myeloperoxidase (MPO) (Homo sapiens (Human))
Sequence (P05164 49-745): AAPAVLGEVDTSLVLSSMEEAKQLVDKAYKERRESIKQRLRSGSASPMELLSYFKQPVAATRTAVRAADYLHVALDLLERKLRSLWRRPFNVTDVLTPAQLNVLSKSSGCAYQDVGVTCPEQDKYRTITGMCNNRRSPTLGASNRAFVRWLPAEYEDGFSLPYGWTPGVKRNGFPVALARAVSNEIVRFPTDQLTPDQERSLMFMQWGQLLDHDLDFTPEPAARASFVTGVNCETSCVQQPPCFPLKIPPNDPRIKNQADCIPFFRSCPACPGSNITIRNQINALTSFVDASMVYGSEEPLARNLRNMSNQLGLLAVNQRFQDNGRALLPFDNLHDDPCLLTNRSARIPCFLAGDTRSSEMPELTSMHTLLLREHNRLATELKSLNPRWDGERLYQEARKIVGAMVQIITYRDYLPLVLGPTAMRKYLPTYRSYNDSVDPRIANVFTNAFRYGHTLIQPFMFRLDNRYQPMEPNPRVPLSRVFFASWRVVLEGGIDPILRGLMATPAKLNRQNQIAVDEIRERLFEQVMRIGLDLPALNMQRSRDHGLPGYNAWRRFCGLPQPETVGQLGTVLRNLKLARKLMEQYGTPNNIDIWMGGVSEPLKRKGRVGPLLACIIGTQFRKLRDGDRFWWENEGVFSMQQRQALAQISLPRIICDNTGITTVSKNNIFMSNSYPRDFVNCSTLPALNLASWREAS
Test: MPO chlorination assay (APF)
Assay type: biochemical
Conditions: MPO chlorination assay, ranges given; read-out: MPO chlorination assay IC50
The entries below are paired with their reported IC50.
OBSERVATION_TYPE: IC50

[
  {
    "COMPOUND": "Nc1cc(SCc2cccc(CO)n2)c2nn[nH]c2n1",
    "OBSERVATION_TYPE": "IC50",
    "RESULT": "60 to 200 nM"
  },
  {
    "COMPOUND": "CS(=O)(=O)c1ccc(F)cc1CSc1cc(N)nc2[nH]nnc12",
    "OBSERVATION_TYPE": "IC50",
    "RESULT": "60 to 200 nM"
  },
  {
    "COMPOUND": "CN(C)Cc1cccc(-n2cc(CSc3cc(N)nc4[nH]nnc34)c(C(F)F)n2)c1",
    "OBSERVATION_TYPE": "IC50",
    "RESULT": "≤ 60 nM"
  },
  {
    "COMPOUND": "N#Cc1cccc(-n2ccnc2)c1CSc1cc(N)nc2[nH]nnc12",
    "OBSERVATION_TYPE": "IC50",
    "RESULT": "200 to 1000 nM"
  },
  {
    "COMPOUND": "N#Cc1ccc(F)c(CSc2cc(N)nc3[nH]nnc23)c1",
    "OBSERVATION_TYPE": "IC50",
    "RESULT": "60 to 200 nM"
  },
  {
    "COMPOUND": "Nc1cc(SCc2c(Cl)cccc2S(N)(=O)=O)c2nn[nH]c2n1",
    "OBSERVATION_TYPE": "IC50",
    "RESULT": "≤ 60 nM"
  },
  {
    "COMPOUND": "Nc1cc(SCc2ccc(Cl)cc2)c2nn[nH]c2n1",
    "OBSERVATION_TYPE": "IC50",
    "RESULT": "≤ 60 nM"
  },
  {
    "COMPOUND": "Nc1cc(SC(CCCNCc2ccccc2)c2ccccc2)c2nn[nH]c2n1 (stereo not shown)",
    "OBSERVATION_TYPE": "IC50",
    "RESULT": "≤ 60 nM"
  },
  {
    "COMPOUND": "CCc1nn(-c2ccccc2)nc1CSc1cc(N)nc2[nH]nnc12",
    "OBSERVATION_TYPE": "IC50",
    "RESULT": "60 to 200 nM"
  },
  {
    "COMPOUND": "Cn1nc(-c2ccccc2)c(CSc2cc(N)nc3[nH]nnc23)c1Cl",
    "OBSERVATION_TYPE": "IC50",
    "RESULT": "200 to 1000 nM"
  },
  {
    "COMPOUND": "Nc1cc(SCc2c(Cl)ccnc2Cl)c2nn[nH]c2n1",
    "OBSERVATION_TYPE": "IC50",
    "RESULT": "60 to 200 nM"
  },
  {
    "COMPOUND": "Nc1cc(SCc2ccccc2C(F)(F)F)c2nn[nH]c2n1",
    "OBSERVATION_TYPE": "IC50",
    "RESULT": "≤ 60 nM"
  },
  {
    "COMPOUND": "CS(=O)(=O)c1cccc(Cl)c1CSc1cc(N)nc2[nH]nnc12",
    "OBSERVATION_TYPE": "IC50",
    "RESULT": "60 to 200 nM"
  },
  {
    "COMPOUND": "Nc1cc(SCc2cn(C3CCCCC3)nc2C(F)(F)F)c2nn[nH]c2n1",
    "OBSERVATION_TYPE": "IC50",
    "RESULT": "60 to 200 nM"
  },
  {
    "COMPOUND": "Nc1cc(SCc2cn(-c3ccncc3)nc2C(F)(F)F)c2nn[nH]c2n1",
    "OBSERVATION_TYPE": "IC50",
    "RESULT": "≤ 60 nM"
  },
  {
    "COMPOUND": "Nc1cc(SCc2ccccc2CN2CCCCC2)c2nn[nH]c2n1",
    "OBSERVATION_TYPE": "IC50",
    "RESULT": "60 to 200 nM"
  },
  {
    "COMPOUND": "CN(C)CCNC(=O)c1cccc(-n2cc(CSc3cc(N)nc4[nH]nnc34)c(C(F)F)n2)c1",
    "OBSERVATION_TYPE": "IC50",
    "RESULT": "60 to 200 nM"
  },
  {
    "COMPOUND": "Nc1nc(SCc2ccccc2-n2cccn2)c2nn[nH]c2n1",
    "OBSERVATION_TYPE": "IC50",
    "RESULT": "200 to 1000 nM"
  },
  {
    "COMPOUND": "Nc1cc(SCc2ccccc2CN2CCOCC2)c2nn[nH]c2n1",
    "OBSERVATION_TYPE": "IC50",
    "RESULT": "60 to 200 nM"
  }
]

Numbers sourced from patent US10981879B2.
